The reported measurements were obtained from patent US20120023600A1.

# TESTED_SYSTEM: T1, recombinant human DKK1 (human, UniProt O94907 32-266)
# T1 construct: also called Dickkopf-1; rhDKK1
# T1 sequence: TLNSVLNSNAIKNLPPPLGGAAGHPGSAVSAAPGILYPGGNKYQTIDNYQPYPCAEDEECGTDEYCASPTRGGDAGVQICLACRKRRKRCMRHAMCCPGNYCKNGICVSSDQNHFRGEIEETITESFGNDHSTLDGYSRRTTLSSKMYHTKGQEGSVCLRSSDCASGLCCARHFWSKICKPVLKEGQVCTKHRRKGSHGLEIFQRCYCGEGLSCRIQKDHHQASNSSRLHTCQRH
# ASSAY_COMMENT: solution equilibrium titration (SET), ECL (BioVeris), Fab
# Experimental: Electrochemiluminescence (ECL) based affinity determination in solution and data evaluation are basically performed as described by Haenel et al., 2005. […] Subsequently, the concentration of unbound Fab is quantified by ECL detection using the M-SERIES® 384 analyzer (BioVeris Europe). Affinities are calculated according to Haenel et al., 2005 Anal Biochem 339.1:182-184.
ASSAY_ENDPOINT: Kd (nM)
// note: answer is a bare numeric in nM

MOR04910 (Fab, V domains shown, also called anti-DKK1 FAb MOR04910) VH: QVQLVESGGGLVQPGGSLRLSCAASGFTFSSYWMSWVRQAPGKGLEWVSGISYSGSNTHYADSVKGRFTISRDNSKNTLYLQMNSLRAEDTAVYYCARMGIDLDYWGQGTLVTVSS VL: DIALTQPASVSGSPGQSITISCTGTSSDVGGFNYVSWYQQHPGKAPKLMIHDGSNRPSGVSNRFSGSKSGNTASLTISGLQAEDEADYYCQSWDVSPITAVFGGGTKLTVLG	0.024
MOR04914 (Fab, V domains shown) VH: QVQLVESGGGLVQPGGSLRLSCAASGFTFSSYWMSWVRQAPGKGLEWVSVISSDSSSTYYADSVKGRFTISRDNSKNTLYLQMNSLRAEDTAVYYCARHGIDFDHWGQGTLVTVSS VL: DIALTQPASVSGSPGQSITISCTGTSSDLGGYNYVSWYQQHPGKAPKLMIYDVNNRPSGVSNRFSGSKSGNTASLTISGLQAEDEADYYCQSYTYTPISPVFGGGTKLTVLG	0.094

Next, consider the following binder.
Which Kd reading was recorded for the binder MOR04920 (Fab, V domains shown) VH: QVQLVESGGGLVQPGGSLRLSCAASGFTFSSYWMSWVRQAPGKGLEWVSSIEHKDAGYTTWYAAGVKGRFTISRDNSKNTLYLQMNSLRAEDTAVYYCARHGIDFDHWGQGTLVTVSS VL: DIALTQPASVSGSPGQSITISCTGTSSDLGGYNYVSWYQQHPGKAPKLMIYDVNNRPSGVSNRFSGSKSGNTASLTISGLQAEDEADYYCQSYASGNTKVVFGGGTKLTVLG ?
0.053
